Values compiled from patent US11306092B2.

Biological target: human TLR7 (Homo sapiens, UniProt Q9NYK1)
Construct: host or cells: HEK-Blue cells
Sequence (Q9NYK1 27-1049): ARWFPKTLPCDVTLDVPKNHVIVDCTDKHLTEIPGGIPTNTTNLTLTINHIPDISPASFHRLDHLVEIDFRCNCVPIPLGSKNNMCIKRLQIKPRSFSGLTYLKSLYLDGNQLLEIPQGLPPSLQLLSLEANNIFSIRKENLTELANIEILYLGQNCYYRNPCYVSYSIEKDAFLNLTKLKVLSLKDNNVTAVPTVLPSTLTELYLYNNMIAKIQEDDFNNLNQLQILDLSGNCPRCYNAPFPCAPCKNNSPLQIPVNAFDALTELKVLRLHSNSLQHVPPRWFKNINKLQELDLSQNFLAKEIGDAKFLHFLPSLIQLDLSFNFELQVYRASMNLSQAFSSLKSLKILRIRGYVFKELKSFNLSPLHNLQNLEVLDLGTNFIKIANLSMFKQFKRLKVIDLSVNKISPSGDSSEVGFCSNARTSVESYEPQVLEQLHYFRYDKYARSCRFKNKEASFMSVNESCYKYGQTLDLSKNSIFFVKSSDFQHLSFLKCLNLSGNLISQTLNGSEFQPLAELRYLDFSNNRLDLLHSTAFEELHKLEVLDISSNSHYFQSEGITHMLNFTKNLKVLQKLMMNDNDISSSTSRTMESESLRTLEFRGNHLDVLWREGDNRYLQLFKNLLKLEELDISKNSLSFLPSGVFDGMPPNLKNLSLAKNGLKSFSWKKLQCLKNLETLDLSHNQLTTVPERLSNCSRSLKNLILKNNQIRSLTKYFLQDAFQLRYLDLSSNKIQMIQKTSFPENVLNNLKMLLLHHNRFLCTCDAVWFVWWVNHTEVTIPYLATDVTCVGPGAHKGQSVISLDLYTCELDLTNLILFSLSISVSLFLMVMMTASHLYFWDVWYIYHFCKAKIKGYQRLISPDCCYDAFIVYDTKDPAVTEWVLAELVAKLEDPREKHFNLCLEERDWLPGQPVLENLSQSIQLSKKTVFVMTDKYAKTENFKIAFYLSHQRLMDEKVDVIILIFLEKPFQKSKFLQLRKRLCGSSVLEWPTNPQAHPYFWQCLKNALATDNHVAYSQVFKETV
Experiment: TLR7 inhibition reporter assay (HEK-Blue SEAP reporter)
Assay type: cell-based
Details: HEK-Blue cells overexpressing human TLR7; gardiquimod 7.5 μM; 22 hour incubation
The threshold is 100 nM. Values of IC50 beneath it are tagged 1; values meeting or exceeding it are tagged 0.

See these solved cases before continuing.
Query block: Consider COc1ccc(-c2[nH]c3ccc(NC4CCC(N5CCN(CC(C)C)CC5)CC4)cc3c2C(C)C)cc1OC (centres unmarked) [Example 52] . Does its IC50 lie strictly below 100 nM?
Result block: 0

Query block: Consider COc1ccc(-c2[nH]c3ccc(NC(=O)[C@@H](N)CCCCN)cc3c2C(C)C)cc1OC . Does its IC50 lie strictly below 100 nM?
Result block: 0

Query block: Consider COc1ccc(-c2[nH]c3ccc(NC(=O)C4CNCCO4)cc3c2C(C)C)cc1OC (centres unmarked) . Does its IC50 lie strictly below 100 nM?
Result block: 1

Further cases:
Query block: Consider COc1ccc(-c2[nH]c3ccc(N4CCC(N(C)C)CC4)cc3c2C(C)C)cc1OC . Does its IC50 lie strictly below 100 nM?
Result block: 1

Query block: Consider CCN1CCCN(C2CCN(c3ccc4[nH]c(-c5ccc(OC)c(OC)c5)c(C(C)C)c4c3)CC2)CC1 . Does its IC50 lie strictly below 100 nM?
Result block: 1

Query block: Consider COc1ccc(-c2[nH]c3ccc(N4CCC(CCN5CCCC5)CC4)cc3c2C(C)C)cc1OC . Does its IC50 lie strictly below 100 nM?
Result block: 1

Query block: Consider COc1ccc(-c2[nH]c3ccc(N4CCC(N(C)C)C4)cc3c2C(C)C)cc1OC (centres unmarked) . Does its IC50 lie strictly below 100 nM?
Result block: 0
